- Experiment notes: chemical recovery by SPE of plasma after PDMS sampling; higher = better extraction
- Condition parameters: pooled human plasma; extraction method: HLB SPE of plasma after PES; equilibration time (d): 3
Readout kind: chemical recovery by SPE of plasma (%)
Use % as the unit, but write only the number.

Entry CC(C)(C)c1ccc(S(N)(=O)=O)cc1 [4-tert-Butylbenzenesulfonamide] — recorded chemical recovery by SPE of plasma = 17

Entry CO/N=C(/C(=O)O)c1ccccc1CO/N=C(\C)c1cccc(C(F)(F)F)c1 — recorded chemical recovery by SPE of plasma = 38.9

Entry c1ccc(/N=N/c2ccccc2)cc1 — recorded chemical recovery by SPE of plasma = 0.401

Entry NS(=O)(=O)c1cc(C(=O)O)c(NCc2ccco2)cc1Cl [Furosemide] — recorded chemical recovery by SPE of plasma = 70.9

Entry Brc1cc(Br)c(Oc2cc(Br)c(Br)cc2Br)cc1Br — recorded chemical recovery by SPE of plasma = 2.62

Entry Cc1nc2n(c(=O)c1CCN1CCC(c3noc4cc(F)ccc34)CC1)CCCC2 — recorded chemical recovery by SPE of plasma = 3.9

Entry c1ccc(Cc2ccccc2)cc1 — recorded chemical recovery by SPE of plasma = 10.1

Entry C[C@]12C=CC(=O)C=C1CC[C@@H]1[C@@H]2[C@@H](O)C[C@@]2(C)[C@H]1CC[C@]2(O)C(=O)CO — recorded chemical recovery by SPE of plasma = 48.4

====

- Experiment notes: chemical recovery from spiked human plasma; higher = better extraction
- Condition parameters: pooled human plasma; extraction method: SPE only (HLB 96-well), PES comparison experiment
Readout kind: chemical recovery (%)
Use % as the unit, but write only the number.

Entry CON(C)C(=O)Nc1ccc(Cl)c(Cl)c1 — recorded chemical recovery = 50.2

Entry C[N+](C)(C)CCCl — recorded chemical recovery = 10.2

Entry C(=C/c1ccccc1)/c1ccccc1 [cis-Stilbene] — recorded chemical recovery = 3.65

Entry c1ccc2sc(NC3CCCCC3)nc2c1 — recorded chemical recovery = 42.4

====

- Experiment notes: chemical recovery into PDMS from spiked human plasma; higher = better extraction
- Condition parameters: pooled human plasma; extraction method: PES with PDMS; equilibration time (d): 1
Please provide measured chemical recovery into PDMS for the entries that follow.
Record the result as a number with its unit.

Entry CC(C)Oc1cc(-n2nc(C(C)(C)C)oc2=O)c(Cl)cc1Cl [Oxadiazone] — recorded chemical recovery into PDMS = 39.1%

Entry C#C[C@]1(O)CC[C@H]2[C@@H]3CCC4=CC(=O)CC[C@@H]4[C@H]3CC[C@@]21C [Norethindrone] — recorded chemical recovery into PDMS = 40.1%

Entry CC(=O)[C@@]1(O)CC[C@H]2[C@@H]3C[C@H](C)C4=CC(=O)CC[C@]4(C)[C@H]3CC[C@@]21C [Medroxyprogesterone] — recorded chemical recovery into PDMS = 40.5%

Entry CC1(C)CCC(Cc2ccc(Cl)cc2)C1(O)Cn1cncn1 (centres undefined) [Metconazole] — recorded chemical recovery into PDMS = 39.4%

====

- Experiment notes: chemical recovery by SPE of plasma after PDMS sampling; higher = better extraction
- Condition parameters: pooled human plasma; extraction method: HLB SPE of plasma after PES; equilibration time (d): 1
Please provide measured chemical recovery by SPE of plasma for the entries that follow.
Record the result as a number with its unit.

Entry CN(Cc1nc2c(N)nc(N)nc2nc1O)c1ccc(C(=O)N[C@@H](CCC(=O)O)C(=O)O)cc1 [7-Hydroxymethotrexate] — recorded chemical recovery by SPE of plasma = 38.5%

Entry CCCCCCCCCCCC[N+](C)(C)Cc1ccccc1 — recorded chemical recovery by SPE of plasma = 39.1%

Entry COCC(C)N(C(=O)CCl)c1c(C)csc1C (stereo not given) — recorded chemical recovery by SPE of plasma = 1.45%

Entry CCC(C)OC(=O)N1CCCCC1CCO (stereo not given) — recorded chemical recovery by SPE of plasma = 2.46%

Entry c1ccc2sc(N3CCOCC3)nc2c1 — recorded chemical recovery by SPE of plasma = 1.2%

====

- Experiment notes: chemical recovery into PDMS from spiked human plasma; higher = better extraction
- Condition parameters: pooled human plasma; extraction method: PES with PDMS; equilibration time (d): 3
Please provide measured chemical recovery into PDMS for the entries that follow.
Use % as the unit, but write only the number.

Entry CCCCOCCOCCOCc1cc2c(cc1CCC)OCO2 [Piperonyl butoxide] — recorded chemical recovery into PDMS = 48.7

Entry O=Cc1ccccc1Nc1ccccc1Cl [2-(2-(Chlorophenyl)amino)benzaldehyde] — recorded chemical recovery into PDMS = 40.9

Entry CC(C1CC1)C(O)(Cn1cncn1)c1ccc(Cl)cc1 (stereo unspecified) [Cyproconazole] — recorded chemical recovery into PDMS = 41.6

Entry CCC(CC)Nc1c([N+](=O)[O-])cc(C)c(C)c1[N+](=O)[O-] [Pendimethalin] — recorded chemical recovery into PDMS = 46.4

Entry c1ccc2sc(N3CCOCC3)nc2c1 [2(4-morpholinyl)benzothiazole] — recorded chemical recovery into PDMS = 29.2

Entry Clc1ccc2c(c1)CCc1cccnc1C2=C1CCNCC1 [Desloratadine] — recorded chemical recovery into PDMS = 0.0639

====

- Experiment notes: chemical recovery from spiked human plasma; higher = better extraction
- Condition parameters: pooled human plasma; extraction method: SPE only (HLB 96-well)
Please provide measured chemical recovery for the entries that follow.
Use % as the unit, but write only the number.

Entry CCn1cc[n+](C)c1 — recorded chemical recovery = 0.856

Entry N#Cc1nn(-c2c(Cl)cc(C(F)(F)F)cc2Cl)c(N)c1[S+]([O-])C(F)(F)F (stereo unspecified) — recorded chemical recovery = 31.6

Entry c1ccc2ncccc2c1 — recorded chemical recovery = 16.5

Entry C[C@H](CCC(=O)O)[C@H]1CC[C@H]2[C@@H]3[C@H](O)C[C@@H]4C[C@H](O)CC[C@]4(C)[C@H]3C[C@H](O)[C@]12C — recorded chemical recovery = 48.4

Entry NC(=O)c1ccc(N)cc1 [4-Aminobenzamide] — recorded chemical recovery = 3.28

Entry CC1CN(C2CCCCCCCCCCC2)CC(C)O1 (stereo unspecified) — recorded chemical recovery = 29

====

- Experiment notes: chemical recovery by SPE of plasma after PDMS sampling; higher = better extraction
- Condition parameters: pooled human plasma; extraction method: HLB SPE of plasma after PES; equilibration time (d): 6
Readout kind: chemical recovery by SPE of plasma
Record the result as a number with its unit.

Entry CC(=O)[C@@]1(O)CC[C@H]2[C@@H]3C[C@H](C)C4=CC(=O)C=C[C@]4(C)[C@@]3(F)[C@@H](O)C[C@@]21C — recorded chemical recovery by SPE of plasma = 40.3%

Entry Oc1ccccc1-c1ccccc1 — recorded chemical recovery by SPE of plasma = 3.11%

Entry CCOC(=O)CC(O)(CC(=O)OCC)C(=O)OCC [Triethylcitrate] — recorded chemical recovery by SPE of plasma = 17%

Entry CCCc1nc2c(C)cc(-c3nc4ccccc4n3C)cc2n1Cc1ccc(-c2ccccc2C(=O)O)cc1 — recorded chemical recovery by SPE of plasma = 43.5%

Entry CC[C@@]1([C@@H]2O[C@@H]([C@H]3O[C@@](O)(CO)[C@H](C)C[C@@H]3C)C[C@@H]2C)CC[C@H]([C@]2(C)CC[C@]3(C[C@H](O)[C@@H](C)[C@@H]([C@@H](C)[C@@H](OC)[C@H](C)C(=O)O)O3)O2)O1 — recorded chemical recovery by SPE of plasma = 1.33%

Entry O=C1CC2(CCCCC2)CN1 — recorded chemical recovery by SPE of plasma = 9.93%

====

- Experiment notes: chemical recovery by SPE of plasma after PDMS sampling; higher = better extraction
- Condition parameters: pooled human plasma; extraction method: HLB SPE of plasma after PES; equilibration time (d): 1
Readout kind: chemical recovery by SPE of plasma (%)
Use % as the unit, but write only the number.

Entry O=C(NC(=O)c1c(F)cccc1F)Nc1ccc(Cl)cc1 — recorded chemical recovery by SPE of plasma = 8.71

Entry COCC(=O)N(c1c(C)cccc1C)C(C)C(=O)OC (stereo not drawn) [Metalaxyl] — recorded chemical recovery by SPE of plasma = 5.41

Entry CC[C@@]1([C@@H]2O[C@@H]([C@H]3O[C@@](O)(CO)[C@H](C)C[C@@H]3C)C[C@@H]2C)CC[C@H]([C@]2(C)CC[C@]3(C[C@H](O)[C@@H](C)[C@@H]([C@@H](C)[C@@H](OC)[C@H](C)C(=O)O)O3)O2)O1 — recorded chemical recovery by SPE of plasma = 3.19

Entry CCNc1ccc2c(C)cc(=O)oc2c1 [7-(Ethylamino)-4-methylcoumarin] — recorded chemical recovery by SPE of plasma = 6.09

Entry Clc1ccc(Cl)c(-c2ccccc2Cl)c1 — recorded chemical recovery by SPE of plasma = 0.716

Entry CC(=O)OCC(=O)[C@@]12OC3(CCCC3)O[C@@H]1C[C@H]1[C@@H]3CCC4=CC(=O)C=C[C@]4(C)[C@@]3(F)[C@@H](O)C[C@@]12C [Amcinonide] — recorded chemical recovery by SPE of plasma = 1.91

Entry Brc1ccc(Oc2c(Br)cc(Br)cc2Br)c(Br)c1 — recorded chemical recovery by SPE of plasma = 2.2

Entry NC(=O)N1c2ccccc2CC(O)c2ccccc21 (stereo not drawn) [10,11-Dihydro-10-hydroxycarbamazepine] — recorded chemical recovery by SPE of plasma = 59.8
